- Test system: 596521-263-R-J1-PDC complex spheroid growth;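 further: spheroids exposed to compounds for 7 days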
- measurementNotes: Anticancer human tumor 596521-263-R-J1-PDC patient-derived soft tissue sarcoma cell line growth inhibition [Asc]
- measurementConditions: curve of compound
property: IC50

compound	assayTarget	IC50
CNC(C)C(=O)NC1CN(S(=O)(=O)c2cccc(S(=O)(=O)N3CCC4CCC(C(=O)NC(c5ccccc5)c5ccccc5)N4C(=O)C(NC(=O)C(C)NC)C3)c2)CCC2CCC(C(=O)NC(c3ccccc3)c3ccccc3)N2C1=O (stereo not given)	596521-263-R-J1-PDC complex spheroid growth	> 1 µM
C#Cc1c(F)ccc2cc(O)cc(-c3ncc4c(N5CC6CCC(C5)N6)nc(OCC56CCCN5CC(F)C6)nc4c3F)c12 (stereo not given)	596521-263-R-J1-PDC complex spheroid growth	> 10 µM
O=C(c1cc(Cc2n[nH]c(=O)c3ccccc23)ccc1F)N1CCN(C(=O)C2CC2)CC1	596521-263-R-J1-PDC complex spheroid growth	> 10 µM
C=CC(=O)N1CCN(c2nc(=O)n(-c3c(C)ccnc3C(C)C)c3nc(-c4c(O)cccc4F)c(F)cc23)C(C)C1 (stereo not given)	596521-263-R-J1-PDC complex spheroid growth	> 10 µM

The record that follows has no IC50 shown yet.
Note to self: IC50 recorded for NC1CCC(NC2CC2c2ccccc2)CC1 (stereo not given) was > 0.1 µM

The measured values listed here are drawn from PubChem BioAssay AID1963449.
